experiment_description: Drug uptake in C57BL6 mouse Fat at 10 mg/kg, po after 24 hrs
Assay type: ADME, organism-based
Parameters: dose 10 mg/kg, route oral
details: fat (adipose tissue), read-out: Drug uptake
measurement_kind: concentration at 24 h
Hey, just the number and the unit after it is fine.

[Q] Need concentration at 24 h, item Cl.NC1C[C@H]2CC[C@@H](C1)N2C(=O)[C@H](Cc1ccc(Br)cc1)NC(=O)C1(c2ccc(OC(F)(F)F)cc2)CC1 (stereo partly specified)
[A] 800 nM

----------
experiment_description: Half life in CD rat at 5 mg/kg
Format: ADME, organism-based
Parameters: dose 5 mg/kg
details: in vivo
measurement_kind: half-life

[Q] Need half-life, item Cl.NC1C[C@H]2CC[C@@H](C1)N2C(=O)[C@H](Cc1ccc(Br)cc1)NC(=O)C1(c2ccc(OC(F)(F)F)cc2)CC1 (stereo partly specified)
[A] 1520 min
